# experimental system: human RIPK1 (1-375) (Homo sapiens)
# Construct: human RIPK1 (1-375) gene; GST; made in house; host or cells: Sf-9 insect cells
# Sequence (Q13546 1-375): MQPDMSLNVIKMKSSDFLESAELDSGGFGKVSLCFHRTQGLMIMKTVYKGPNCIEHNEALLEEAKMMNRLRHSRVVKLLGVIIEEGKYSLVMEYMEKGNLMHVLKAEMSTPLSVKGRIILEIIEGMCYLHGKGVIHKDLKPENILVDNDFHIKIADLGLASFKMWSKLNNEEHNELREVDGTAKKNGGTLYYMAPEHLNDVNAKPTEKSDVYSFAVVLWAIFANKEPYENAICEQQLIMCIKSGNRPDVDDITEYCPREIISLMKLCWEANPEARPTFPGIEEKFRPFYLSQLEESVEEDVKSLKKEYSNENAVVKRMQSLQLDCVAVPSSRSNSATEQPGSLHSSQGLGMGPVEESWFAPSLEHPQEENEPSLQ
# protocol summary: Human RIPK1 enzyme inhibitory effect (ADP-Glo Kinase Assay)
# Assay type: biochemical
# details: read-out: human RIPK1 enzyme inhibitory effect at 10 μM (% inhibition), 10 μM test compound; well without enzyme = 100% inhibition
outcome measure: inhibition at 10 µM (%)

| compound | recorded value |
| --- | --- |
| CN1C(=O)[C@@H](N2CCc3cn(Cc4ccccc4Cl)nc3C2=O)COc2ccccc21 | 100 |
| CN1C(=O)[C@@H](N2CCc3nn(Cc4ccccc4)cc3C2=O)COc2ccccc21 | 92 |
| CN1C(=O)[C@@H](N2CCc3cn(Cc4ccoc4)nc3C2=O)COc2ccccc21 | 99 |
| CN1C(=O)[C@@H](N2CCc3cn(Cc4ccccc4F)nc3C2=O)COc2ccccc21 | 100 |
| Cc1c2c(nn1Cc1ccccc1)C(=O)N([C@H]1COc3cc(C(N)=O)ccc3N(C)C1=O)CC2 | 101 |
| CN1C(=O)[C@@H](N2CCc3cn(Cc4ccccc4F)nc3C2=O)COc2cc(C#N)ccc21 | 97 |
| CN1C(=O)[C@@H](N2CCc3cn(CC4COCCO4)nc3C2=O)COc2ccccc21 (some centres unmarked) | 96 |
| CN1C(=O)[C@@H](N2CCc3cn(Cc4ccc(Cl)cc4)nc3C2=O)CSc2ccccc21 | 99 |
